System: Escherichia coli TOP10
Test: shrunken log2 fold change of peptide-encoding DNA abundance (4.5 h post-induction vs induction); higher = less antimicrobial activity (less host growth inhibition)
Conditions: time post-induction: 4.5 h; library: site-saturation at positions 5, 18, 19, 20
Provide the recorded shrunken log2 fold change for the entries that follow.
Write the number on its own, no unit after it.

Notebook entry, Escherichia coli TOP10 assay: shrunken log2 fold change of RRIRYRPPRLPRPRPRPMTRPRP = ?
-0.139

Please do the same for RRIRHRPPRLPRPRPRPKVTPRP as well.
-0.62

Please do the same for RRIRMRPPRLPRPRPRPFHDPRP as well.
-0.14

Please do the same for RRIRWRPPRLPRPRPRPNRVPRP as well.
-0.0395

Please do the same for RRIRPRPPRLPRPRPRPKTQPRP as well.
-0.02

Please do the same for RRIRCRPPRLPRPRPRPWTNPRP as well.
-0.0849

Please do the same for RRIRIRPPRLPRPRPRPGEPPRP as well.
-0.0228

Please do the same for RRIRCRPPRLPRPRPRPVLLPRP as well.
-0.385

Please do the same for RRIRQRPPRLPRPRPRPHAAPRP as well.
0.465

Please do the same for RRIRQRPPRLPRPRPRPKGVPRP as well.
-0.00208

Please do the same for RRIRHRPPRLPRPRPRPHYWPRP as well.
-0.588

Please do the same for RRIRIRPPRLPRPRPRPLVLPRP as well.
-0.458

Please do the same for RRIRARPPRLPRPRPRPGRPPRP as well.
0.801

Please do the same for RRIRQRPPRLPRPRPRPHFCPRP as well.
0.0177

Please do the same for RRIRQRPPRLPRPRPRPRVQPRP as well.
0.527

---

Provide the recorded shrunken log2 fold change for the entries that follow.
Tested on: Escherichia coli TOP10
Experiment: shrunken log2 fold change of peptide-encoding DNA abundance (4.5 h post-induction vs induction); higher = less antimicrobial activity (less host growth inhibition)
Conditions: time post-induction: 4.5 h; library: site-saturation at positions 5, 18, 19, 20
Write the number on its own, no unit after it.

Fill in: shrunken log2 fold change of RRIRDRPPRLPRPRPRPPKEPRP is ___
-0.2

Please do the same for RRIRDRPPRLPRPRPRPWVNPRP as well.
0.0215

Please do the same for RRIRFRPPRLPRPRPRPITSPRP as well.
-0.178

Please do the same for RRIRTRPPRLPRPRPRPSPKPRP as well.
2.46

Please do the same for RRIRFRPPRLPRPRPRPNRYPRP as well.
-0.319

Please do the same for RRIRSRPPRLPRPRPRPYNQPRP as well.
-0.642

Please do the same for RRIRCRPPRLPRPRPRPELIPRP as well.
-0.0287

Please do the same for RRIRFRPPRLPRPRPRPCLNPRP as well.
-0.244

Please do the same for RRIRMRPPRLPRPRPRPTFPPRP as well.
0.0878

Please do the same for RRIRGRPPRLPRPRPRPQMRPRP as well.
0.899

Please do the same for RRIRPRPPRLPRPRPRPVTFPRP as well.
-0.186

Please do the same for RRIRHRPPRLPRPRPRPTHKPRP as well.
0.0457

Please do the same for RRIRKRPPRLPRPRPRPHWWPRP as well.
0.119

Please do the same for RRIRIRPPRLPRPRPRPRNLPRP as well.
-0.306

Please do the same for RRIRQRPPRLPRPRPRPNDPPRP as well.
-0.0265

Please do the same for RRIRQRPPRLPRPRPRPRWLPRP as well.
0.453

Please do the same for RRIRSRPPRLPRPRPRPNHQPRP as well.
-0.139

Please do the same for RRIRHRPPRLPRPRPRPPHTPRP as well.
0.249

Please do the same for RRIRWRPPRLPRPRPRPIMHPRP as well.
-0.174

Please do the same for RRIRLRPPRLPRPRPRPLWMPRP as well.
-0.00586

Please do the same for RRIRERPPRLPRPRPRPKYSPRP as well.
-0.866

Please do the same for RRIRWRPPRLPRPRPRPWNCPRP as well.
-0.116

Please do the same for RRIRKRPPRLPRPRPRPRDWPRP as well.
0.935

Please do the same for RRIRVRPPRLPRPRPRPTNIPRP as well.
-0.783

Please do the same for RRIRNRPPRLPRPRPRPYVCPRP as well.
-0.363

Please do the same for RRIRARPPRLPRPRPRPPERPRP as well.
0.703

Please do the same for RRIRLRPPRLPRPRPRPQRVPRP as well.
0.0215

Please do the same for RRIRTRPPRLPRPRPRPVHDPRP as well.
-0.0747

Please do the same for RRIRARPPRLPRPRPRPRFQPRP as well.
0.466

Please do the same for RRIRFRPPRLPRPRPRPNNAPRP as well.
-0.271

Please do the same for RRIRDRPPRLPRPRPRPCWTPRP as well.
0.122

Please do the same for RRIRFRPPRLPRPRPRPDPNPRP as well.
-0.072

Please do the same for RRIRPRPPRLPRPRPRPHHLPRP as well.
-0.0444

Please do the same for RRIRVRPPRLPRPRPRPWRLPRP as well.
0.426

Please do the same for RRIRVRPPRLPRPRPRPNSQPRP as well.
-0.131

Please do the same for RRIRPRPPRLPRPRPRPMDRPRP as well.
0.247

Please do the same for RRIRYRPPRLPRPRPRPMPMPRP as well.
-0.319

Please do the same for RRIRIRPPRLPRPRPRPSWIPRP as well.
-0.411

Please do the same for RRIRWRPPRLPRPRPRPHQPPRP as well.
0.145

Please do the same for RRIRQRPPRLPRPRPRPKKNPRP as well.
0.0205

Please do the same for RRIRPRPPRLPRPRPRPKLCPRP as well.
-0.0437

Please do the same for RRIRKRPPRLPRPRPRPPYFPRP as well.
-0.101

Please do the same for RRIRMRPPRLPRPRPRPAFTPRP as well.
0.251

Please do the same for RRIRWRPPRLPRPRPRPMPPPRP as well.
0.411

Please do the same for RRIRLRPPRLPRPRPRPMRFPRP as well.
0.0595

Please do the same for RRIRYRPPRLPRPRPRPLRWPRP as well.
0.184

Please do the same for RRIRIRPPRLPRPRPRPVFTPRP as well.
-0.305

Please do the same for RRIRDRPPRLPRPRPRPQHDPRP as well.
-0.249

Please do the same for RRIRTRPPRLPRPRPRPYMKPRP as well.
-0.0199

Please do the same for RRIRWRPPRLPRPRPRPQTKPRP as well.
0.434

Please do the same for RRIRVRPPRLPRPRPRPNCPPRP as well.
-0.0515

Please do the same for RRIRFRPPRLPRPRPRPRYEPRP as well.
-0.598

Please do the same for RRIRWRPPRLPRPRPRPMYLPRP as well.
-0.507

Please do the same for RRIRERPPRLPRPRPRPAMKPRP as well.
-0.0226

Please do the same for RRIRDRPPRLPRPRPRPEGRPRP as well.
0.517

Please do the same for RRIRHRPPRLPRPRPRPVPIPRP as well.
0.0935

Please do the same for RRIRYRPPRLPRPRPRPCWIPRP as well.
-0.01

Please do the same for RRIRMRPPRLPRPRPRPCRIPRP as well.
-0.0476

Please do the same for RRIRYRPPRLPRPRPRPHTQPRP as well.
-1.1

Please do the same for RRIRLRPPRLPRPRPRPPVCPRP as well.
0.124

Please do the same for RRIRPRPPRLPRPRPRPFPAPRP as well.
-0.161

Please do the same for RRIRIRPPRLPRPRPRPENYPRP as well.
-0.405

Please do the same for RRIRTRPPRLPRPRPRPQHVPRP as well.
-0.0575

---

Tested on: Escherichia coli TOP10;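 note: peptides expressed intracellularly from a pBAD plasmid library in pooled LB shake-flask culture, induced with 0.3% L-arabinose, DNA abundance read by NGS, three biological replicates, DESeq2 with apeglm shrinkage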
Experiment: shrunken log2 fold change of peptide-encoding DNA abundance (4.5 h post-induction vs induction); higher = less antimicrobial activity (less host growth inhibition)
Conditions: time post-induction: 4.5 h; library: site-saturation at positions 5, 18, 19, 20
Parameter threshold = 0.07. Response is class 1 when shrunken log2 fold change meets or exceeds it, else class 0.

Say whether RRIRGRPPRLPRPRPRPYIKPRP shows shrunken log2 fold change of 0.07 or more.
class 0

Please do the same for RRIRIRPPRLPRPRPRPMMVPRP as well.
class 0

Please do the same for RRIRERPPRLPRPRPRPLQEPRP as well.
class 0

Please do the same for RRIRDRPPRLPRPRPRPDQSPRP as well.
class 0

Please do the same for RRIRFRPPRLPRPRPRPGDAPRP as well.
class 1

Please do the same for RRIRQRPPRLPRPRPRPRSDPRP as well.
class 0

Please do the same for RRIRNRPPRLPRPRPRPMERPRP as well.
class 0

Please do the same for RRIRGRPPRLPRPRPRPCSIPRP as well.
class 1

Please do the same for RRIRNRPPRLPRPRPRPCYSPRP as well.
class 0

Please do the same for RRIRHRPPRLPRPRPRPCYSPRP as well.
class 0

Please do the same for RRIRERPPRLPRPRPRPGSHPRP as well.
class 0

Please do the same for RRIRQRPPRLPRPRPRPAPHPRP as well.
class 1

Please do the same for RRIRVRPPRLPRPRPRPHYPPRP as well.
class 0

Please do the same for RRIRARPPRLPRPRPRPHCFPRP as well.
class 1
